- target.of.assay: recombinant SARS-CoV-2 Main protease (Mpro) (Severe acute respiratory syndrome coronavirus 2 (2019-nCoV) (SARS-CoV-2))
- test.details: Cov Mpro Biochemical IC50 Assay
- run.conditions: recombinant SARS-CoV-2 Mpro 7.5 nM, fluorogenic peptide substrate 40 μM; read-out: MPro IC50
Kindly supply the reported IC50 values for the records listed here.
Report the value in nM with no unit label.

Can you share its IC50? I mean this compound: COc1cc(-c2cc3c(s2)c(=O)n(-c2cncc4ccccc24)c(=O)n3CCC#N)c(C#N)cc1F (single isomer, unassigned) [Example 967]
1.82

Param item = COc1cnc(C)c(-c2cc3[nH]c(=O)n(-c4cncc5ccccc45)c(=O)c3s2)c1 [Example 718] ; retrieve measured IC50.
106

IC50 lookup needed for COc1ccc(C#N)c(-c2cc3[nH]c(=O)n(-c4cncc5ccccc45)c(=O)c3cc2F)c1 [Example 428] , thanks.
10.2

What value of IC50 has been recorded for this entry: COc1cc(-c2cc3c(s2)c(=O)n(-c2cnccc2C)c(=O)n3CCC#N)c(Cl)cc1F [Example 987]
5.68
